# tissue to tissue ratio at 4 h per record follows
- EXPERIMENT: biodistribution in A431-CCK2R/A431-mock xenografted BALB/c nude mice
- Assay type: in vivo
- CONDITION_DESCRIPTION: female, athymic BALB/c nude, mouse, tumor/stomach, iv, 150 pmol, total radioactivity, 150 pmol, 4 h p.i.; read-out: tumor-to-stomach ratio
Non-standard residues stand in square brackets, D forms with d. Residues, ends and D or L forms follow the SMILES beside them. *: point of attachment. DOTA = O=C(O)CN1CCN(CC(=O)O)CCN(CC(=O)*)CCN(CC(=O)O)CC1; 1Nal = N[C@@H](Cc1cccc2ccccc12)C(=O)O; NMeNle = CCCC[C@H](NC)C(=O)O
Answer as a number with no unit attached.

# COMPOUND, tissue to tissue ratio at 4 h
measured = [
    ("CCCC[C@@H](C(=O)N[C@@H](CC(=O)O)C(=O)N[C@@H](Cc1cccc2ccccc12)C(N)=O)N(C)C(=O)[C@H](Cc1c[nH]c2ccccc12)NC(=O)CNC(=O)[C@H](Cc1ccc(O)cc1)NC(=O)[C@@H]1CCCN1C(=O)[C@@H](CCC(=O)O)NC(=O)CN1CCN(CC(=O)O)CCN(CC(=O)O)CCN(CC(=O)O)CC1 [[^177Lu]Lu-1, metal not drawn] ({DOTA}-[dE]PYGW[NMeNle]D[1Nal]-NH2)", 14.9),
]

[in] Give its tissue to tissue ratio at 4 h value. Item: CCCC[C@@H](C(=O)N[C@@H](CC(=O)O)C(=O)N[C@@H](Cc1cccc2ccccc12)C(N)=O)N(C)C(=O)[C@H](Cc1c[nH]c2ccccc12)NC(=O)CNC(=O)[C@@H]1CCCN1C(=O)[C@H](Cc1ccc(O)cc1)NC(=O)[C@@H](CCC(=O)O)NC(=O)CN1CCN(CC(=O)O)CCN(CC(=O)O)CCN(CC(=O)O)CC1 [[^177Lu]Lu-2, metal not drawn] ({DOTA}-[dE]YPGW[NMeNle]D[1Nal]-NH2)
[out] 12.7

====

- EXPERIMENT: biodistribution in A431-CCK2R/A431-mock xenografted BALB/c nude mice
- Type: in vivo
- CONDITION_DESCRIPTION: female, athymic BALB/c nude, mouse, tumor/kidney, iv, 150 pmol, total radioactivity, 150 pmol, 4 h p.i.; read-out: tumor-to-kidney ratio
Non-standard residues stand in square brackets, D forms with d. Residues, ends and D or L forms follow the SMILES beside them. *: point of attachment. DOTA = O=C(O)CN1CCN(CC(=O)O)CCN(CC(=O)*)CCN(CC(=O)O)CC1; 1Nal = N[C@@H](Cc1cccc2ccccc12)C(=O)O; NMeNle = CCCC[C@H](NC)C(=O)O
# tissue to tissue ratio at 4 h per record follows
Answer as a number with no unit attached.

# COMPOUND, tissue to tissue ratio at 4 h
rows = [
    ("CCCC[C@@H](C(=O)N[C@@H](CC(=O)O)C(=O)N[C@@H](Cc1cccc2ccccc12)C(N)=O)N(C)C(=O)[C@H](Cc1c[nH]c2ccccc12)NC(=O)CNC(=O)[C@@H]1CCCN1C(=O)[C@H](Cc1ccc(O)cc1)NC(=O)[C@@H](CCC(=O)O)NC(=O)CN1CCN(CC(=O)O)CCN(CC(=O)O)CCN(CC(=O)O)CC1 [[^177Lu]Lu-2, metal not drawn] ({DOTA}-[dE]YPGW[NMeNle]D[1Nal]-NH2)", 2.23),
]

Field: next compound
[in] Give its tissue to tissue ratio at 4 h value. Item: CCCC[C@@H](C(=O)N[C@@H](CC(=O)O)C(=O)N[C@@H](Cc1cccc2ccccc12)C(N)=O)N(C)C(=O)[C@H](Cc1c[nH]c2ccccc12)NC(=O)CNC(=O)[C@H](Cc1ccc(O)cc1)NC(=O)[C@@H]1CCCN1C(=O)[C@@H](CCC(=O)O)NC(=O)CN1CCN(CC(=O)O)CCN(CC(=O)O)CCN(CC(=O)O)CC1 [[^177Lu]Lu-1, metal not drawn] ({DOTA}-[dE]PYGW[NMeNle]D[1Nal]-NH2)
[out] 4.25
